Cited source: BindingDB's records for doi:10.1074/jbc.M113.479303

assay system: Probable salicylate monooxygenase [H213A] (Rhodococcus jostii (strain RHA1), UniProt Q0SFK6, H213A)
protocol: Substrate Binding Assay
assay conditions: pH 8
parameter: Kd (µM)
Hi! Could you send only the number? It should be in µM, unit omitted.

## Input // returns reported Kd for input O=C(O)c1cccc(O)c1
## Output 61
